Assay: Solubility assessment (solvent added in 10 volume aliquots)
Type: physicochemical
Conditions: IPA, organic solvent or mixture, thermodynamic from solid, IPA, 30 vols; read-out: Solubility assessment observation

- smi: "C1=C2COC/C=C/COCc3cc(ccc3OCCN3CCCC3)Nc3nccc(n3)C(=C1)O2"
  solubility: "< 33.3 mg/mL"

###

Assay: Solubility assessment (solvent added in 10 volume aliquots)
Type: physicochemical
Settings: MEK, organic solvent or mixture, thermodynamic from solid, MEK, 200 vols; read-out: Solubility assessment observation

- smi: "C1=C2COC/C=C/COCc3cc(ccc3OCCN3CCCC3)Nc3nccc(n3)C(=C1)O2"
  solubility: "< 5000 µg/mL"

###

Test: Solubility assessment (solvent added in 10 volume aliquots)
Assay type: physicochemical
Details: ethyl acetate, organic solvent or mixture, thermodynamic from solid, Ethyl acetate, 50 vols; read-out: Solubility assessment observation
Protocol: For each solvent investigated, approximately 8 mg of compound 1 was weighed into an 8 ml screw top glass vial. The solvent was added in 10 volume aliquots and the mixture sonicated and warmed (with a hot-air gun) to encourage dissolution. If dissolution was not achieved after the addition of 100 volumes of solvent, a further 100 volumes was added.
attribute.measured: solubility

- smi: "C1=C2COC/C=C/COCc3cc(ccc3OCCN3CCCC3)Nc3nccc(n3)C(=C1)O2"
  observed.value: "< 20 mg/mL"

###

Test: Solubility assessment (solvent added in 10 volume aliquots)
Type: physicochemical
Conditions: THF, organic solvent or mixture, thermodynamic from solid, THF, 60 vols; read-out: Solubility assessment observation

- smi: "C1=C2COC/C=C/COCc3cc(ccc3OCCN3CCCC3)Nc3nccc(n3)C(=C1)O2"
  solubility: "< 16.7 mg/mL"

###

Test: Solubility assessment (solvent added in 10 volume aliquots)
Type: physicochemical
Conditions: IPA, organic solvent or mixture, thermodynamic from solid, IPA, 100 vols; read-out: Solubility assessment observation

- smi: "C1=C2COC/C=C/COCc3cc(ccc3OCCN3CCCC3)Nc3nccc(n3)C(=C1)O2"
  solubility: "< 10000 µg/mL"

###

Test: Solubility assessment (solvent added in 10 volume aliquots)
Type: physicochemical
Settings: acetonitrile, organic solvent or mixture, thermodynamic from solid, Acetonitrile, 60 vols; read-out: Solubility assessment observation

- smi: "C1=C2COC/C=C/COCc3cc(ccc3OCCN3CCCC3)Nc3nccc(n3)C(=C1)O2"
  solubility: "< 16.7 mg/mL"
